System: Mycobacterium tuberculosis
Assay: Antimycobacterial activity against recombinant Mycobacterium tuberculosis containing Rv0341 promoter by luciferase assay
Type: functional
Parameters: concentration or dose not given beside the values
Calls of active or inactive are those of the source. No cut-off for these calls is given here.
observation.type: Activity

{"molecule": "CC1(C)C2CC=C(CN3CCN(Cc4ccccc4)CC3)C1C2 (stereo unspecified)", "observation.type": "Activity", "readout.value": "inactive"}
{"molecule": "Clc1ccc(C(c2ccccc2)N2CCN(C3CCC4CCCCC4C3)CC2)cc1 (stereo unspecified)", "observation.type": "Activity", "readout.value": "inactive"}
{"molecule": "c1ccc(COc2ccc(CN3CCCN(Cc4ccc(OCc5ccccc5)cc4)CC3)cc2)cc1", "observation.type": "Activity", "readout.value": "inactive"}
{"molecule": "CCOc1ccccc1CN1CCCN(Cc2ccccc2OCC)CC1", "observation.type": "Activity", "readout.value": "70%"}
{"molecule": "COc1ccccc1CN1CCCN(Cc2ccccc2OC)CC1", "observation.type": "Activity", "readout.value": "138%"}
{"molecule": "C1CN(C2C3CC4CC(C3)CC2C4)CCN(C2C3CC4CC(C3)CC2C4)C1 (stereo unspecified)", "observation.type": "Activity", "readout.value": "126%"}
{"molecule": "Fc1ccc(N2CCN(C3CCC4CCCCC4C3)CC2)cc1 (stereo unspecified)", "observation.type": "Activity", "readout.value": "157%"}
{"molecule": "COc1ccccc1CN1CCN(C(c2ccccc2)c2ccc(Cl)cc2)CC1 (stereo unspecified)", "observation.type": "Activity", "readout.value": "inactive"}
{"molecule": "CC1(C)C2CC=C(CN3CCCN(CC4=CCC5CC4C5(C)C)CC3)C1C2", "observation.type": "Activity", "readout.value": "113%"}
{"molecule": "C1CCC2CC(N3CCCN(C4CCC5CCCCC5C4)CC3)CCC2C1 (mixture of isomers)", "observation.type": "Activity", "readout.value": "127%"}
{"molecule": "c1ccc(COc2ccc(CN3CCN(Cc4ccccc4)CC3)cc2)cc1", "observation.type": "Activity", "readout.value": "inactive"}

Data origin: ChEMBL document CHEMBL1147721
